SH2 binding enrichment by entry:
Tested target: SHP2-C SH2;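 note: peptide library displayed on the E. coli surface as eCPX fusions, selected cells deep-sequenced, score is each peptide's frequency after selection divided by its frequency in the input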
Experiment: SH2 binding enrichment of the phosphorylated peptide, bacterial display (enrichment ratio); higher = better substrate or ligand; peptides without Tyr show the background
Readout type: SH2 binding enrichment

[[record]]
sequence_code = "EGNEQYEGYCV [GRIA3_Y451_R450Q]"
measured_result = 0.768

[[record]]
sequence_code = "CVVVPYEPPEV [TP53_Y220_S215C]"
measured_result = 0.576

[[record]]
sequence_code = "VPLLEYFRDIF [CDAN1_Y712_YF]"
measured_result = 1.38

[[record]]
sequence_code = "EILLSYLRTGF [TGM1_Y365_YF]"
measured_result = 0.974

[[record]]
sequence_code = "KFVVVYFREID [IL17RB_Y447_YF]"
measured_result = 2.08

[[record]]
sequence_code = "EEGEEYGGGGG [TUBA1A_Y451]"
measured_result = 0.744

[[record]]
sequence_code = "SMGHRYIEVFR [HNRNPF_Y82_K87R]"
measured_result = 1.33

[[record]]
sequence_code = "GRVLGYGAFRK [FLT4_Y853_G857R]"
measured_result = 0.733

[[record]]
sequence_code = "GGFTWYCDGKK [PROS1_Y266_C265W_YF]"
measured_result = 0.511

[[record]]
sequence_code = "TLERHYEELQA [SPTBN2_Y834]"
measured_result = 0.52

[[record]]
sequence_code = "FTDGQYWIRGR [ACSF3_Y466_K462T]"
measured_result = 0.489

[[record]]
sequence_code = "MAFDRYVAICA [OR52J3_Y125_V128I]"
measured_result = 0.635

[[record]]
sequence_code = "WVFNHYRWIIW [BRCA2_Y2624_YF]"
measured_result = 0.776

[[record]]
sequence_code = "SGEKPYKCSVC [ZNF543_Y283_E287V]"
measured_result = 0.712

